# System: OVCAR-3 ovarian
# assay: NCI-60 one-dose screen, 48 h
# condition.parameters: 10 µM unless noted
Compounds without any hit were thinned out: in the full panel of roughly 83,000, 20% have a hit. Activity calls are given as the source filed them. The calls were made as follows: active = growth percent below 10; inactive = the rest.
Answer with one of the outcomes given here: y = active, n = inactive

{"columns": ["compound", "cat"],
 "data": [
  ["CCCCCCNC(=O)Nc1ncnc2c1ncn2-c1ccccc1", "n"],
  ["Nc1cccc2c1C(=O)c1cccc(NC(=O)c3ccccc3)c1C2=O", "y"]
]}

Task: Would you mind telling me which call this test gave "COC(=O)[C@]1(C)CC[C@]2(C)CC[C@]3(C)C(=CC(=O)[C@@H]4[C@@]5(C)CCC(=O)NC(C)(C)[C@@H]5CC[C@]43C)[C@@H]2C1" ?
Output: y

Task: Would you mind telling me which call this test gave "Cc1ccc(S(=O)(=O)Oc2ccc(Br)cc2Br)cc1" ?
Output: n

Task: Would you mind telling me which call this test gave "NC(=O)c1c(NC(=O)COC(=O)Cc2ccccc2F)sc2c1CCC2" ?
Output: n

Task: Would you mind telling me which call this test gave "Cn1cc(-c2noc(-c3cn(C)c4ncc(F)cc34)n2)c2cc(Cl)ccc21" ?
Output: n

Task: Would you mind telling me which call this test gave "Cc1cc(N2CCCCCC2)nc(N2CCN(CC(=O)Nc3ccc4c(ccn4Cc4ccccc4)c3)CC2)n1" ?
Output: n

Task: Would you mind telling me which call this test gave "CC(C)(C)c1cc(C(=O)Nc2ccccc2C(=O)NCCN)cc(C(C)(C)C)c1" ?
Output: n

Task: Would you mind telling me which call this test gave "Nc1ccc(NC(=O)c2ccccc2)c2c1C(=O)c1ccccc1C2=O" ?
Output: n

Task: Would you mind telling me which call this test gave "CCN(CC)CCS(=O)(=O)CCNc1ccnc2cc(Cl)ccc12" ?
Output: y

Task: Would you mind telling me which call this test gave "CC(C)CSc1ncnc2nc[nH]c12" ?
Output: n

Task: Would you mind telling me which call this test gave "COc1cc(-c2nc(SCCC(C)C)nc(Nc3ccc(S(N)(=O)=O)cc3)c2C#N)cc(OC)c1OC" ?
Output: n

Task: Would you mind telling me which call this test gave "COc1ccc(NC(=O)Nc2ccc(-c3cccnc3)cc2N2CCC(CO)CC2)cc1" ?
Output: n

Task: Would you mind telling me which call this test gave "O=C(Nc1ccc(CN2CCOCC2)c(C(F)(F)F)c1)c1nc2ccc3[nH]ncc3c2c2c1CCCC2" ?
Output: n

Task: Would you mind telling me which call this test gave CC1Cc2c(ncnc2-n2cnc3ccccc32)N(C)c2ccccc21 (centres undefined) ?
Output: n

Task: Would you mind telling me which call this test gave C=C(C)C1CCC2(C(=O)O)CCC3(C)C(CCC4C5(C)CCC(OC(=O)NCc6ccccc6)C(C)(C)C5CCC43C)C12 (centres undefined) ?
Output: n

Task: Would you mind telling me which call this test gave "O=C(NCCCCCCCNC(=O)OCc1ccc2c(Cl)cc(Cl)c(O)c2n1)OCc1ccc2c(Cl)cc(Cl)c(O)c2n1" ?
Output: y

Task: Would you mind telling me which call this test gave "CC1(C)[C@@H](NOCCCN)CC[C@]2(C)[C@H]3C(=O)C=C4[C@@H]5C[C@](C)(C(=O)O)CC[C@]5(C)CC[C@@]4(C)[C@]3(C)CC[C@@H]12" ?
Output: y

Task: Would you mind telling me which call this test gave "CCOC(=O)c1ccc2nc(-c3c(C)nn(-c4ccccc4)c3N3CCOCC3)[nH]c2c1" ?
Output: n

Source listed as PubChem BioAssay (NCI).
